Here, each record is paired with measured IC50 data.
# System: MDA-MB-231
# assay: Inhibitory concentration required for antiproliferative activity against human MDA-MB-231 cells
# Assay type: functional, cell-based

COc1ccc(/C=C/c2cc(OC)cc(OC)c2)cc1	1.2 µM
COc1cc(OC)cc(-c2ccc3cc(OC)ccc3c2)c1	45.1 µM
Oc1cc(O)cc(-c2ccc3cc(O)ccc3c2)c1	12.7 µM
COc1cc(/C=C/c2ccc(O)cc2)cc(OC)c1	10 µM
COc1cc(OC)cc(-c2ccc3cc(O)ccc3c2)c1	7.2 µM

Query: Please give the documented IC50 of COc1ccc(/C=C/c2cc(O)cc(O)c2)cc1
Response: > 50 µM

Query: Read off the recorded IC50 for COc1ccc2cc(-c3cc(O)cc(O)c3)ccc2c1
Response: 28.3 µM

Query: Using the record for Oc1ccc(/C=C/c2cc(O)cc(O)c2)cc1 , state its measured IC50.
Response: 20.5 µM
